tested on: normal primary NK cells, pool 1 (3 donors), resting (IL-2 0 ng/mL); assay: percent inhibition of viability; higher = more inhibition; settings: 72 h; 1000 nM
parameter: percent inhibition of viability

* O=C(Nc1ccncc1)C(=O)c1cn(Cc2ccc(Cl)cc2)c2ccccc12 [Indibulin] (max concentration tested 10000 nM) | 8.83%
* CCc1nc(-c2cccc(C)c2)c(-c2ccnc(NC(=O)c3ccccc3)c2)s1 [TAK-715] (max concentration tested 10000 nM) | -18.5%
* FC(F)(F)c1ccc(/C=C/c2nc(COc3ccc(CCCCn4ccnn4)cc3)co2)cc1 [Mubritinib] (max concentration tested 1000 nM) | 64.8%

// percent inhibition of viability lookup, key: CC1(C)CCC(CN2CCN(c3ccc(C(=O)NS(=O)(=O)c4ccc(NCC5CCOCC5)c([N+](=O)[O-])c4)c(Oc4cnc5[nH]ccc5c4)c3)CC2)=C(c2ccc(Cl)cc2)C1 [Venetoclax] (max concentration tested 10000 nM)
91.6%

Also CCOc1cc2ncc(C#N)c(Nc3ccc(OCc4ccccn4)c(Cl)c3)c2cc1NC(=O)/C=C/CN(C)C [Neratinib] (max concentration tested 1000 nM) , if possible.
70.1%

Also CCN1CCN(c2ccc(Nc3cc(N(C)C(=O)Nc4c(Cl)c(OC)cc(OC)c4Cl)ncn3)cc2)CC1 [NVP-BGJ398] (max concentration tested 1000 nM) , if possible.
19.9%

====

test system: NK-92 (IL-2 2.5 ng/mL); experiment: percent inhibition of viability; higher = more inhibition; conditions: 72 h; 10000 nM
So basically: is percent inhibition of viability under 40%? Then rule met. Not under? Then rule not met.

- CN(C)c1cc2c(cc1Sc1nc3c(N)nccc3n1CCNCC(C)(C)C)OCO2 [CUDC-305] (max concentration tested 10000 nM): rule not met
- COc1cc(F)c(F)c(Nc2ccc(I)cc2F)c1NS(=O)(=O)C1(C[C@H](O)CO)CC1 [Refametinib] (max concentration tested 10000 nM): rule met
- COc1cc2c(cc1O)CC[C@@H]1[C@@H]2CC[C@]2(C)[C@@H](O)CC[C@@H]12 [2-methoxyestradiol] (max concentration tested 10000 nM): rule not met
- O=c1cc(N2CCOCC2)oc2c(-c3ccccc3)cccc12 (max concentration tested 100000 nM): rule met
- COCC1(CO)C(=O)C2CCN1CC2 (stereo unspecified) [APR-246] (max concentration tested 10000 nM): rule met

# ---- query molecule ----
Consider the molecule N#CC(c1ccnc(OCc2ccc(CN3CCOCC3)cc2)n1)c1nc2ccccc2s1 (stereo unspecified) [Bentamapimod] (max concentration tested 10000 nM) . Is its percent inhibition of viability strictly less than 40%?
rule not met

====

system: NK-YS (IL-2 2.5 ng/mL); experiment: drug sensitivity score (DSS) (DSS units); higher = more sensitive; extreme values may be limits of the assay; details: 72 h
// reported drug sensitivity score for each item listed
Provide a numeric answer; units are not to be included.

- OC[C@H]1O[C@@H](n2cnc3c2N=CNC[C@H]3O)C[C@@H]1O [Pentostatin] (max concentration tested 10000 nM): 0
- O=C(c1ccc(/C=C/c2n[nH]c3ccccc23)cc1)N1CCNCC1 [KW-2449] (max concentration tested 2500 nM): 2.28
- O=C(/C=C/c1cccnc1)NCCCCC1CCN(C(=O)c2ccccc2)CC1 [Daporinad] (max concentration tested 1000 nM): 38.1

// drug sensitivity score lookup, key: O=C(Nc1cccc(Cl)c1)Nc1ncc(CCNc2ncnc3ccsc23)s1 [SNS-314] (max concentration tested 1000 nM)
13

Also CCS(=O)(=O)N1CC(CC#N)(n2cc(-c3ncnc4[nH]ccc34)cn2)C1 [Baricitinib] (max concentration tested 2500 nM) , if possible.
13.7

Also O=C(Nc1ccc2[nH]nc(-c3ccncc3)c2c1)[C@@H]1CCN(CC(=O)N2CCN(c3ccc(-c4ncccn4)cc3)CC2)C1 (max concentration tested 10000 nM) , if possible.
3.58

Also CN1CCN(c2cc(C(=O)Nc3ccc4c(c3)-c3c(c(C(N)=O)nn3-c3ccc(F)cc3)CC4)c(Cl)cn2)CC1 [PHA 408] (max concentration tested 10000 nM) , if possible.
6.95

Also CCCOc1ccn2c(C(C)=O)cc(-c3ccccc3S(C)(=O)=O)c2c1 [GSK2801] (max concentration tested 10000 nM) , if possible.
0.07

Also Cc1c2oc3c(C)ccc(C(=O)N[C@@H]4C(=O)N[C@H](C(C)C)C(=O)N5CCC[C@H]5C(=O)N(C)CC(=O)N(C)[C@@H](C(C)C)C(=O)O[C@@H]4C)c3nc-2c(C(=O)N[C@@H]2C(=O)N[C@H](C(C)C)C(=O)N3CCC[C@H]3C(=O)N(C)CC(=O)N(C)[C@@H](C(C)C)C(=O)O[C@@H]2C)c(N)c1=O [Dactinomycin] (max concentration tested 1000 nM) , if possible.
39.5

Also COc1cc([C@@H]2c3cc4c(cc3[C@@H](O[C@@H]3O[C@@H]5CO[C@@H](c6cccs6)O[C@H]5[C@H](O)[C@H]3O)[C@H]3COC(=O)[C@H]23)OCO4)cc(OC)c1O [Teniposide] (max concentration tested 10000 nM) , if possible.
29.3

Also CCN1CCN(c2ccc(Nc3cc(N(C)C(=O)Nc4c(Cl)c(OC)cc(OC)c4Cl)ncn3)cc2)CC1 [NVP-BGJ398] (max concentration tested 1000 nM) , if possible.
0

Values compiled from the supplement of paper PMC5908809.
